Percent Effect listing for selected molecules.
ASSAY SYSTEM: Arginase-2, mitochondrial (Homo sapiens) (UniProt P78540)
Sequence (P78540 whole entry): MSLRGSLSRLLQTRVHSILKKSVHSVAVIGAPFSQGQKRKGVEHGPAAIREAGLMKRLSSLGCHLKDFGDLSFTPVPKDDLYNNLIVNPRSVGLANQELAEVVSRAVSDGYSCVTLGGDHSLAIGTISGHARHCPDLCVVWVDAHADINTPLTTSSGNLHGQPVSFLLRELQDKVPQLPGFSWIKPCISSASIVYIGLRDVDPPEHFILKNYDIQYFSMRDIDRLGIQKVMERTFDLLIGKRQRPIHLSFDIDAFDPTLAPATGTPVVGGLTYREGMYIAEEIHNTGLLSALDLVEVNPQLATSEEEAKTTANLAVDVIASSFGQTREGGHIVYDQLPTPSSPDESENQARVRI
ASSAY INFO: in vitro enzyme assay to detect the production of urea directly proportional to the activity of Arginase II
Type: functional
Parameters: scale not given: in the data most compounds retested in dose-response had high values
TEST SETTINGS: 33.3 µM
Respond with the bare value in %.

For orientation, consider the following solved cases.
O=C1CC(c2cccnc2)C2(CCN(S(=O)(=O)C3CC3)CC2)N1 (stereo not drawn) | -4.78
O=C(c1cccc2c1OCO2)N1CCCC1Cn1cccn1 (stereo not drawn) | -1.9

Query block: Name the recorded Percent Effect for CCc1csc(C2CCCN(C(=O)c3ccnc(N(C)C)c3)C2)n1 (stereo not drawn) .
Result block: -3.55
